Consider the following molecules; for each one, report its TGI.
System: MCF7 breast
Assay: NCI tumour cell line growth inhibition, 48 h
Give the quantity in µM, number only.

`OCCCN=NNc1ccc(-c2nc3ccccc3[nH]2)cc1` yielded TGI of 2.4

O=C1/C(=C\c2cccc(Oc3ccccc3)c2)S(=O)(=O)C(c2ccccc2)N1c1ccc(Cl)cc1 (stereo not given) yielded TGI of 62.9

---

Consider the following molecules; for each one, report its TGI.
Test system: CCRF-CEM leukemia
Experiment: NCI tumour cell line growth inhibition, 48 h

`CC(=O)c1ccc(NC(=O)CSc2nnc(-c3cc(-c4ccc(C)cc4)nc4ccccc34)o2)cc1` yielded TGI of > 100 µM

`O=[N+]([O-])c1ccc(-c2nc(-c3ccccc3)c(-c3ccccc3)n2-c2ccccc2)cc1` yielded TGI of > 23.8 µM

`Cc1ccc(-c2c(C#N)c(S)n(NS(=O)(=O)c3ccc(C)cc3)c(=O)c2C#N)cc1` yielded TGI of > 100 µM

`CCOC(=O)c1sc2nc3sc(N=Nc4ccc(Cl)cc4)c(O)n3c(=S)c2c1C` yielded TGI of > 100 µM

CC1(C)CC(=O)C2=C(C1)c1c(ccc3ccccc13)NC2c1cn(Cc2ccc(Cl)cc2)c2ccccc12 (centres undefined) yielded TGI of > 100 µM

CCOC(=O)CCC(NC(=O)c1ccc(Oc2nc3ccc(C(F)(F)F)cc3nc2-c2ccccc2)cc1)C(=O)OCC (centres undefined) yielded TGI of > 100 µM

`CCCCCCCC/C=C/CCCCCCCCC1=NCCN1CCO` yielded TGI of 4.96 µM

`NC(=O)C1=NNc2ccccc2C(=O)N1c1ccccc1` yielded TGI of > 100 µM

COC(OC)c1cccc2c1C(=O)CCC1(O)c3ccccc3C1C2 (centres undefined) yielded TGI of > 100 µM

COc1cc(C2C(Cl)C(=O)N2NC(=O)c2ccccc2O)ccc1O (centres undefined) yielded TGI of > 100 µM

CSC(C1c2ccccc2N(C)C2=NC(=O)N(C)C(=O)C21Cl)S(=O)(=O)c1ccc(C)cc1 (centres undefined) yielded TGI of 28.3 µM

Cc1ccc(C2NC(=S)NC3=C2CCOc2c3ccc3ccccc23)cc1 (centres undefined) yielded TGI of > 100 µM

CC(C)C1OC(=O)C=C1Sc1ccccc1 (centres undefined) yielded TGI of > 100 µM

COC1=CC(O)(CC(N)=O)c2ccccc2C1=O (centres undefined) yielded TGI of > 100 µM

`CC(=O)C(=[N+]=[N-])C(=O)OC(C)(C)C#N` yielded TGI of > 10 µM

CC(C)(C)[Si](C)(C)OCC1OC(n2cnc3c(NC(=O)c4ccccc4)ncnc32)CC1O (centres undefined) yielded TGI of 53.4 µM

`Cc1cc2cc3cc(C)c(N(C)C)cc3nc2cc1N(C)C` yielded TGI of > 100 µM

COc1ccc(C2=NNC(=O)OC2c2ccccc2)cc1 (centres undefined) yielded TGI of > 100 µM

`O=C1CCC[C@]2(CCC[C@@H](O)C2)N1` yielded TGI of > 100 µM

COC(=O)C1(Cc2ccc3c(c2)CCC3)Cc2ccc3c(c2C1O)CCC3 (centres undefined) yielded TGI of > 100 µM

CCCCC(C)C1CCC2(C)C=CC(=O)C(C)=C2C1O (centres undefined) yielded TGI of > 100 µM

`CN1CN(c2ccccc2)C2(CCN(CCCSc3ccccc3NC(=O)/C=C/c3ccccc3)CC2)C1=O` yielded TGI of > 100 µM

`Cc1ccc(-c2nc(SCC(=O)O)n[nH]2)cc1` yielded TGI of > 100 µM

`Cc1ccc(NC(=O)NC(=O)c2ccc([N+](=O)[O-])cc2[N+](=O)[O-])cc1Oc1ncc(Cl)cn1` yielded TGI of > 62.3 µM

Cc1cccc2c1Oc1ccccc1C2NC(=O)c1ccc([N+](=O)[O-])cc1 (centres undefined) yielded TGI of > 100 µM

CC(=O)C1CC=C(C)CC1 (centres undefined) yielded TGI of > 100 µM

`CCOC(=O)c1c(C)c2c(n1C)CCc1cn[nH]c1-2` yielded TGI of > 100 µM

`O=C1Nc2cccc(Cl)c2/C1=C\c1c(Cl)nc2sccn12` yielded TGI of > 100 µM

CC1C[C@H](OC(N)=O)C(C)CC1=O (some centres undefined) yielded TGI of > 100 µM

`O=c1[nH]c(Nc2cccc(C(F)(F)F)c2)nc2nc[nH]c12` yielded TGI of > 100 µM

`C[C@H](Nc1c(O)c2c(c(O)c1Cl)C(=O)C=CC2=O)C(=O)Nc1ccc([N+](=O)[O-])cc1` yielded TGI of > 10 µM

`CC1(C)CC[C@]2(C)CC=C3[C@]4(C)CC[C@H]5C(C)(C)C(=O)CC[C@]5(C)[C@H]4CC[C@@]3(C)[C@H]2C1` yielded TGI of > 100 µM

`CN1CCCNc2c(c(=O)c2=O)NCCCN(C)CCCNc2c(c(=O)c2=O)NCCCN(C)CCCNc2c(c(=O)c2=O)NCCCN(C)CCCNc2c(c(=O)c2=O)NCCCN(C)CCCNc2c(c(=O)c2=O)NCCCN(C)CCCNc2c(c(=O)c2=O)NCCCN(C)CCCNc2c(c(=O)c2=O)NCCC1` yielded TGI of 49.3 µM

CCCCCC(O)C1C(=O)OC(C)C(O)/C=C/C=C/C=C/C=C\C=C(\C)C(O)CC(O)CC(O)CC(O)CC(O)CC(O)CC1O (centres undefined) yielded TGI of > 100 µM

`CN(C)CCNc1ccc2c(=O)n(CCN(C)C)c(=O)n3c4ccc([N+](=O)[O-])cc4c(=O)c1c23` yielded TGI of 0.381 µM

COc1ccc(C(O)/C(=N\NC(N)=S)c2nc3ccc([N+](=O)[O-])cc3[nH]c2=O)cc1OC (centres undefined) yielded TGI of > 100 µM

COc1ccc(N2C(=O)C3ON(C(C(N)=O)c4ccccc4)C(c4ccc(-c5ccccc5)cc4)C3C2=O)cc1 (centres undefined) yielded TGI of > 50 µM

`O=C(NNC(=S)Nc1ccccc1)c1ccccc1Nc1ccccc1C(=O)NNC(=S)Nc1ccccc1` yielded TGI of > 100 µM

O=C(CC(=O)N1N=C(N2CCCCC2)CC1c1ccccc1)Nc1ccc(Cl)cc1 (centres undefined) yielded TGI of > 100 µM
